System: ACHN renal
Assay: NCI-60 one-dose screen, 48 h
Details: 10 µM unless noted
About 83,000 compounds went through this panel and 20% of them were active in at least one assay; those are over-represented in the sample as a whole. Calls of active or inactive are those of the source. The calls were made as follows: active = growth percent below 10; inactive = the rest.
Response enum: y = active, n = inactive

Just curious, what result did "COc1cc(-c2cc(-c3ccc(Nc4ncnc5cc(Cl)ccc45)cc3)nc(N3CCCCC3)n2)cc(OC)c1OC" get here?
n

Thanks! And "C=C(C)[C@@H]1CC[C@]2(c3ncc(C)o3)CC[C@]3(C)[C@H](CC[C@@H]4[C@@](C)(CCC#N)[C@H](C(=C)C)CC[C@]43C)[C@@H]12" ?
y

Can you check "O=C(CCNCc1ccccc1)c1ccccc1" next?
n

Can you handle "CC1(C)C(=O)/C(=C\c2ccco2)C[C@]2(C)[C@H]3CC=C4[C@@H]5C[C@](C)(C(=O)O)CC[C@]5(C)CC[C@@]4(C)[C@]3(C)CC[C@@H]12" next?
y

Would you kindly repeat that for O=C1/C(=C\c2cn(CC(O)CN3CCCCC3)c3ccccc23)c2ccccc2N1c1c(Cl)cccc1Cl (configuration not stated) ?
y

What do we get for "O=C(CSc1nccc(Nc2ccc(S(=O)(=O)Nc3ccccn3)cc2)n1)c1ccc(Cl)cc1" ?
n

// same read-out, input: "CNC(=O)c1cc(Oc2ccc3nc(NC(=O)c4ccc5ncccc5c4)sc3c2)ccn1"
n

Do the same for "O=C(Nc1ccc(CN2CCOCC2)c(C(F)(F)F)c1)c1nc2ccc3[nH]ncc3c2c2c1CCCC2" please
n

Field entry: "O=S(=O)(c1ccc(N/N=C\c2ccccc2Cl)cc1)c1ccc(N/N=C/c2ccccc2Cl)cc1"
n

Same for "O=[N+]([O-])c1ccc(O)c(-c2nc3ccccc3s2)c1"
n

Also need "Cc1cnc(N)nc1OCC(C)(C)CNC(=O)c1cccc(-c2ccc(S(=O)(=O)Nc3ccc4c(c3)N(C(=O)C3CC3)CCC4)cc2)c1" , thanks.
n

And what about the molecule COc1ccc(CC(C#N)c2ccc(Cl)cc2)cc1 (configuration not stated) ?
n

Param item: "C#C[C@]1(O)CC[C@H]2[C@@H]3CC=C4c5nc(Nc6ccccn6)sc5CC[C@]4(C)[C@H]3CC[C@@]21C"
n

Measured values drawn from PubChem BioAssay (NCI) for this set.
